- test.target: human serum albumin (HSA) (Homo sapiens, UniProt P02768)
- Sequence (P02768 25-609): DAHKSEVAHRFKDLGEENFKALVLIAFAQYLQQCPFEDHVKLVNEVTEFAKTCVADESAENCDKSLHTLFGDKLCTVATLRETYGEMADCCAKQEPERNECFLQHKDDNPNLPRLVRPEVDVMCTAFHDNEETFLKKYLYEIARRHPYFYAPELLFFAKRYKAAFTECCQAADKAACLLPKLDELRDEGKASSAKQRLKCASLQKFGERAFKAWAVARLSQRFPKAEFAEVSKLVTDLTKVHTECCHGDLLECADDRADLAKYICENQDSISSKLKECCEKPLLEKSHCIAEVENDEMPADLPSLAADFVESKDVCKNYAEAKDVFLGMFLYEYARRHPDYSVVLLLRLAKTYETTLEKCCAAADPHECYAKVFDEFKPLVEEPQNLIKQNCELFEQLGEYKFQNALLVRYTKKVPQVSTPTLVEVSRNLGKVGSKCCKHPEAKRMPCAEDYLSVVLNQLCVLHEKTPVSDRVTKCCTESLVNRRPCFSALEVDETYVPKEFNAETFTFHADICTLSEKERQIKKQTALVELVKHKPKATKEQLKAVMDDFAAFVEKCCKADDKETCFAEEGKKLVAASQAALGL
- method.summary: in vitro
- measurement.setup: HSA; 1 = highest relative affinity, 4 = lowest
experimental.readout: rank order of binding affinity among the four albumins
Answers are plain numbers.

Check out these entries, answers already filled in.
Prompt: Which rank order of binding affinity among the four albumins reading was recorded for the compound `O=C(O)C(F)(F)C(F)(F)C(F)(F)C(F)(F)C(F)(F)F` ?
Completion: 3

Prompt: Form field: reported rank order of binding affinity among the four albumins of `O=C(O)C(F)(F)C(F)(F)C(F)(F)C(F)(F)C(F)(F)C(F)(F)C(F)(F)F`
Completion: 3

Prompt: # query: rank order of binding affinity among the four albumins of entry `O=S(=O)(O)C(F)(F)C(F)(F)C(F)(F)C(F)(F)F`
Completion: 4

Prompt: What value of measured rank order of binding affinity among the four albumins is listed for O=C(O)C(F)(OC(F)(F)C(F)(F)C(F)(F)F)C(F)(F)F (stereo not drawn) [HFPO-DA, hexafluoropropylene oxide-dimer acid] ?
Completion: 1

Prompt: Using the record for `O=C(O)C(F)(F)C(F)(F)C(F)(F)F` , report its rank order of binding affinity among the four albumins.
Completion: 3

Kindly review the next compound as well.
Prompt: Need rank order of binding affinity among the four albumins of `O=S(=O)(O)CCC(F)(F)C(F)(F)C(F)(F)C(F)(F)C(F)(F)C(F)(F)F` , thanks.
Completion: 2

###

- test.target: Rat serum albumin (RSA) (Rattus norvegicus, UniProt P02770)
- Sequence (P02770 25-608): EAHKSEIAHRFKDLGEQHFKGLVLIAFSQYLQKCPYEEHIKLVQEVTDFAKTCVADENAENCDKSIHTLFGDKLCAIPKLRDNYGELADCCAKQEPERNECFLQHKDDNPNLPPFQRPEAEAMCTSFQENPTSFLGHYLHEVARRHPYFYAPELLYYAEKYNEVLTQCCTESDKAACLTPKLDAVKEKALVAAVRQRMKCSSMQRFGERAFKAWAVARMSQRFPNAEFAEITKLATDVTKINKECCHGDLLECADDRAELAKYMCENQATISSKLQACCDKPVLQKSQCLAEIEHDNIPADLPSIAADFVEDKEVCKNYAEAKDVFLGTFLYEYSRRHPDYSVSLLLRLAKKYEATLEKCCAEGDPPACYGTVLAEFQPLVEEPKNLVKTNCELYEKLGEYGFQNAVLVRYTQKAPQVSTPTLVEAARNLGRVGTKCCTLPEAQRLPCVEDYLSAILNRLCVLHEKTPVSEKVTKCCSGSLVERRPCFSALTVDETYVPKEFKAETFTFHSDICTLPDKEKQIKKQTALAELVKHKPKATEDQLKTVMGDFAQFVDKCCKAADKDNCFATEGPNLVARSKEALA
- method.summary: in vitro
- measurement.setup: rat, pH 7.4
- Procedure: Serum albumin stocks (1 mM) were prepared by reconstituting lyophilized stocks in HBS, with expected protein concentrations confirmed using the colorimetric Bio-Rad DC Protein Assay (Hercules, California). A minimum of 2 independent plates were run for each protein-ligand combination, with 3 replicates per sample on each plate. […]
experimental.readout: ΔTm (°C)
Give bare numbers, in °C.

Prompt: Look up ΔTm: `O=S(=O)(O)CCC(F)(F)C(F)(F)C(F)(F)C(F)(F)C(F)(F)C(F)(F)F`
Completion: 7.99

Next up:
Prompt: Quick one: ΔTm for `O=S(=O)(O)C(F)(F)C(F)(F)C(F)(F)C(F)(F)C(F)(F)C(F)(F)C(F)(F)C(F)(F)F` ?
Completion: 4.76

###

- test.target: Rat serum albumin (RSA) (Rattus norvegicus)
- method.summary: biochemical
experimental.readout: Kd
Report as: number unit

# per-item lookup of Kd; items listed below
1. O=S(=O)(O)C(F)(F)C(F)(F)C(F)(F)C(F)(F)F [PFBS, perfluorobutanesulfonic acid]
2. O=C(O)C(F)(F)C(F)(F)C(F)(F)C(F)(F)C(F)(F)F [PFHxA, Perfluorohexanoic acid]
3. O=C(O)C(F)(F)C(F)(F)C(F)(F)F [PFBA, Perfluorobutanoic acid]
4. O=C(O)C(F)(F)C(F)(F)C(F)(F)C(F)(F)C(F)(F)C(F)(F)C(F)(F)F [PFOA, perfluorooctanoic acid]
5. O=C(O)C(F)(OC(F)(F)C(F)(F)C(F)(F)F)C(F)(F)F (centres unmarked) [HFPO-DA, hexafluoropropylene oxide-dimer acid]

Completion:
1. 1410 µM
2. 1330 µM
3. 1900 µM
4. 400 µM
5. 1640 µM

###

- test.target: porcine serum albumin (PSA) (Sus scrofa)
- method.summary: biochemical
experimental.readout: Kd
Answer by giving the amount and then stating its unit.

Look over these answered cases.
Prompt: Kd lookup needed for `O=C(O)C(F)(F)C(F)(F)C(F)(F)C(F)(F)C(F)(F)C(F)(F)C(F)(F)F` , thanks.
Completion: 0.37 mM

Prompt: Would you kindly share the measured Kd for `O=C(O)C(F)(F)C(F)(F)C(F)(F)C(F)(F)C(F)(F)F` ?
Completion: 0.95 mM

Go through the items and report each one's Kd.
1. O=C(O)C(F)(F)C(F)(F)C(F)(F)F
2. O=S(=O)(O)C(F)(F)C(F)(F)C(F)(F)C(F)(F)F
3. O=C(O)C(F)(OC(F)(F)C(F)(F)C(F)(F)F)C(F)(F)F (centres unmarked) [HFPO-DA, hexafluoropropylene oxide-dimer acid]

Completion:
["1.28 mM", "1.25 mM", "2.12 mM"]

###

Provide the recorded pKd for the entries that follow.
- test.target: Bovine serum albumin (BSA) (Bos taurus)
- method.summary: biochemical
- Protocol: A minimum of 2 independent plates were run for each protein-ligand combination, with 3 replicates per sample on each plate. Controls on each plate included a no protein control, matching vehicle control (no ligand), and 3 concentrations of OA (1, 2, 3 mM) and/or PFHxA (0.3, 1, 3 mM) as positive controls. The concentration of albumin that yielded maximal signal-to-noise ratio was optimized for each species. […] For concentration-response analyses, PFAS stock solutions were serially diluted into HBS.
One number for each entry, as −log10 of the molar value.

Prompt: So what does the record say about pKd for `O=C(O)C(F)(F)C(F)(F)C(F)(F)F` ?
Completion: 2.51

Prompt: Item under review: `O=C(O)C(F)(F)C(F)(F)C(F)(F)C(F)(F)C(F)(F)C(F)(F)C(F)(F)F` . Reported pKd?
Completion: 3.00

Prompt: So what's the measured pKd for this one? `O=S(=O)(O)CCC(F)(F)C(F)(F)C(F)(F)C(F)(F)C(F)(F)C(F)(F)F`
Completion: 2.86

Prompt: Which pKd value is on record for `O=C(O)C(F)(F)C(F)(F)C(F)(F)C(F)(F)C(F)(F)F` ?
Completion: 2.66

***
Prompt: pKd lookup needed for O=C(O)C(F)(OC(F)(F)C(F)(F)C(F)(F)F)C(F)(F)F (centres unmarked) [HFPO-DA, hexafluoropropylene oxide-dimer acid] , thanks.
Completion: 2.59

###

- test.target: Bovine serum albumin (BSA) (Bos taurus)
- method.summary: in vitro
- measurement.setup: BSA compared with HSA, from DSF Kd
- Procedure: A minimum of 2 independent plates were run for each protein-ligand combination, with 3 replicates per sample on each plate. Controls on each plate included a no protein control, matching vehicle control (no ligand), and 3 concentrations of OA (1, 2, 3 mM) and/or PFHxA (0.3, 1, 3 mM) as positive controls. The concentration of albumin that yielded maximal signal-to-noise ratio was optimized for each species. […] For concentration-response analyses, PFAS stock solutions were serially diluted into HBS.
I'd appreciate it if you could supply difference in binding affinity, BSA affinity lower than HSA values for the items below.
One number for each entry, in %.

Look at each compound and report its difference in binding affinity, BSA affinity lower than HSA.
1. O=C(O)C(F)(F)C(F)(F)C(F)(F)C(F)(F)C(F)(F)F
2. O=S(=O)(O)CCC(F)(F)C(F)(F)C(F)(F)C(F)(F)C(F)(F)C(F)(F)F
3. O=C(O)C(F)(F)C(F)(F)C(F)(F)C(F)(F)C(F)(F)C(F)(F)C(F)(F)F
4. O=C(O)C(F)(OC(F)(F)C(F)(F)C(F)(F)F)C(F)(F)F (stereo not shown) [HFPO-DA, hexafluoropropylene oxide-dimer acid]

Completion:
1: 23.7; 2: 108.9; 3: 22.5; 4: 47.6

###

- test.target: Bovine serum albumin (BSA) (Bos taurus, UniProt P02769)
- Sequence (P02769 25-607): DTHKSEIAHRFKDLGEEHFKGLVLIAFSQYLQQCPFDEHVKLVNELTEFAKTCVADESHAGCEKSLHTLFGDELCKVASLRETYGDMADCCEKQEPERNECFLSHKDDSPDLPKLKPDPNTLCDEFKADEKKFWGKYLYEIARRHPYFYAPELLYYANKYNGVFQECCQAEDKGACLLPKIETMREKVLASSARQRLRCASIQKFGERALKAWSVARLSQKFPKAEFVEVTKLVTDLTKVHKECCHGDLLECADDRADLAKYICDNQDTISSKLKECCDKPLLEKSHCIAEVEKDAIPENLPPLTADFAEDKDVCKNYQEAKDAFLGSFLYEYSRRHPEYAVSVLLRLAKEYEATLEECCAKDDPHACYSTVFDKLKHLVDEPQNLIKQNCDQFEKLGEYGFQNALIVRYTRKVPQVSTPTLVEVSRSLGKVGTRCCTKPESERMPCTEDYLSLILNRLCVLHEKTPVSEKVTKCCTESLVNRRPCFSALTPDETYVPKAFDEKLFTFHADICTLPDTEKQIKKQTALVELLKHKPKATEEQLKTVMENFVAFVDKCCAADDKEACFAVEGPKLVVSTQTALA
- method.summary: in vitro
- measurement.setup: BSA; 1 = highest relative affinity, 4 = lowest
experimental.readout: rank order of binding affinity among the four albumins
Numbers only.

Sample records with rank order of binding affinity among the four albumins:
Prompt: What measured rank order of binding affinity among the four albumins goes with O=C(O)C(F)(OC(F)(F)C(F)(F)C(F)(F)F)C(F)(F)F (stereo not drawn) [HFPO-DA, hexafluoropropylene oxide-dimer acid] ?
Completion: 4

Prompt: Can you look up the measured rank order of binding affinity among the four albumins of O=S(=O)(O)C(F)(F)C(F)(F)C(F)(F)C(F)(F)F [PFBS, perfluorobutanesulfonic acid] for me?
Completion: 1

Prompt: Requested read-out: rank order of binding affinity among the four albumins. Entry: O=S(=O)(O)CCC(F)(F)C(F)(F)C(F)(F)C(F)(F)C(F)(F)C(F)(F)F [6:2 FTSA]
Completion: 4

Prompt: Name the reported rank order of binding affinity among the four albumins value associated with the compound O=C(O)C(F)(F)C(F)(F)C(F)(F)F [PFBA, Perfluorobutanoic acid]
Completion: 4

Prompt: Request the reported rank order of binding affinity among the four albumins associated with O=C(O)C(F)(F)C(F)(F)C(F)(F)C(F)(F)C(F)(F)F [PFHxA, Perfluorohexanoic acid]
Completion: 4

Shift focus to the following entry.
Prompt: For the compound shown here, O=C(O)C(F)(F)C(F)(F)C(F)(F)C(F)(F)C(F)(F)C(F)(F)C(F)(F)F [PFOA, perfluorooctanoic acid] , give the reported rank order of binding affinity among the four albumins.
Completion: 4

###

- test.target: porcine serum albumin (PSA) (Sus scrofa, UniProt P08835)
- Sequence (P08835 25-607): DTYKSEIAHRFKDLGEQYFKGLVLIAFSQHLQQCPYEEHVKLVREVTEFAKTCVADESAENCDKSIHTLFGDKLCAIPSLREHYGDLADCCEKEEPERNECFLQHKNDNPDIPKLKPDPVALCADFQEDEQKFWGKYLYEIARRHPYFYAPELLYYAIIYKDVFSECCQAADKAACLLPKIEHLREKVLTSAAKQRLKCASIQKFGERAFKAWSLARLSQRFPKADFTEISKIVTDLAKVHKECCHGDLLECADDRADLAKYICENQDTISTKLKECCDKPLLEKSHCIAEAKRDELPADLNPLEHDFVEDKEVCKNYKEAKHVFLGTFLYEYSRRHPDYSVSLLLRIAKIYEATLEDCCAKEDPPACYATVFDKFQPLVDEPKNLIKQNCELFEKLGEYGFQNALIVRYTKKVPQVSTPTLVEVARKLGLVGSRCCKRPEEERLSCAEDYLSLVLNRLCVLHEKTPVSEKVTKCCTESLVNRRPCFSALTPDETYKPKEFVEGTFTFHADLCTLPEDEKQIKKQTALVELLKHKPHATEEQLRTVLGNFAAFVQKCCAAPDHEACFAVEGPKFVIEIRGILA
- method.summary: in vitro
- measurement.setup: PSA; 1 = highest relative affinity, 4 = lowest
experimental.readout: rank order of binding affinity among the four albumins
One number for each entry.

// solved cases for rank order of binding affinity among the four albumins follow
Prompt: Using the record for `O=C(O)C(F)(F)C(F)(F)C(F)(F)F` , report its rank order of binding affinity among the four albumins.
Completion: 1

Prompt: Fill in: rank order of binding affinity among the four albumins of `O=C(O)C(F)(F)C(F)(F)C(F)(F)C(F)(F)C(F)(F)F` is ___
Completion: 1

Prompt: Value lookup for rank order of binding affinity among the four albumins; key = `O=S(=O)(O)C(F)(F)C(F)(F)C(F)(F)C(F)(F)F`
Completion: 2

Prompt: // returns reported rank order of binding affinity among the four albumins for input O=C(O)C(F)(OC(F)(F)C(F)(F)C(F)(F)F)C(F)(F)F (stereo not drawn) [HFPO-DA, hexafluoropropylene oxide-dimer acid]
Completion: 3

Prompt: Suppose we examine the compound `O=S(=O)(O)CCC(F)(F)C(F)(F)C(F)(F)C(F)(F)C(F)(F)C(F)(F)F` ; what rank order of binding affinity among the four albumins value has been reported?
Completion: 3

Now take the following compound into account.
Prompt: So what does the record say about rank order of binding affinity among the four albumins for `O=C(O)C(F)(F)C(F)(F)C(F)(F)C(F)(F)C(F)(F)C(F)(F)C(F)(F)F` ?
Completion: 1
